assay: Phase 1 SAD/MAD study: plasma pharmacokinetics of Compound 1a (LC-MS-MS, noncompartmental analysis); format: in vivo, human; conditions: human, plasma, oral, 1000 mg, single dose 1000 mg, healthy volunteers, geometric mean (geometric CV %); read-out: Tmax
assay readout: Tmax (h)
Kindly provide the numeric value in h only, without the unit symbol.

Briefly, Tmax measured for O.O=C([O-])c1nn[nH]c1Oc1ccc(-c2ccc(C3CC(F)(F)C3)cc2)cc1.[Na+] [Compound 1a] : 2.5

----------
Test: Phase 1 SAD/MAD study: plasma pharmacokinetics of Compound 1a (LC-MS-MS, noncompartmental analysis)
Assay type: in vivo, human
Settings: human, plasma, oral, 500 mg, MAD 500 mg qd for 7 days, average, plasma; read-out: Day 7 Cmax
Procedure: Pharmacokinetics: Human K2-ethylenediaminetetraacetic acid (K2-EDTA) plasma samples were analyzed for Compound 1a by a validated method over a range of 1.0 to 1000 ng/mL based on the analysis of 100 μL of sample. Human plasma containing Compound 1a and the internal standard, Compound 1a-D4, was extracted using liquid-liquid extraction and analyzed by a Sciex API 4000 LC-MS-MS equipped with an HPLC column. […]
assay readout: Cmax at 7 days (µg/mL)
Kindly provide the numeric value in µg/mL only, without the unit symbol.

Briefly, Cmax at 7 days measured for O.O=C([O-])c1nn[nH]c1Oc1ccc(-c2ccc(C3CC(F)(F)C3)cc2)cc1.[Na+] [Compound 1a] : 17
